system: Staphylococcus aureus; test: Antibacterial activity against methicillin-sensitive Staphylococcus aureus 601055.; assay type: functional
property-label: MIC (µg/mL)

>>> quantitative_result("C[C@@H](O)[C@H]1C(=O)N2C(C(=O)O)=C(CSc3ccc4c(c3)OCCC4=O)[C@H](C)[C@H]12")
0.03
>>> quantitative_result("C[C@@H](O)[C@H]1C(=O)N2C(C(=O)O)=C(Sc3ccc4ccccc4c3)[C@H](C)[C@H]12")
0.03
>>> quantitative_result("C[C@@H](O)[C@H]1C(=O)N2C(C(=O)O)=C(SCCNC=N)C[C@H]12 [IMIPENEM ANHYDROUS]")
0.03
>>> quantitative_result("Cc1nc2ccc(SCC3=C(C(=O)O)N4C(=O)[C@H]([C@@H](C)O)[C@H]4[C@H]3C)cc2s1")
0.03

* * *

system: Staphylococcus aureus; assay: Antibacterial activity against methicillin-resistant Staphylococcus aureus 601053.; assay type: functional
Recorded MIC for the following molecules
property-label: MIC (µg/mL)

>>> quantitative_result("C[C@@H](O)[C@H]1C(=O)N2C(C(=O)O)=C(COc3cccc4c3CCC4=O)[C@H](C)[C@H]12")
0.12
>>> quantitative_result("C[C@@H](O)[C@H]1C(=O)N2C(C(=O)O)=C(SCc3ccc4ccccc4c3)[C@H](C)[C@H]12")
1
>>> quantitative_result("C[C@@H](O)[C@H]1C(=O)N2C(C(=O)[O-])=C(COc3ccc4nc(C[n+]5ccccc5)sc4c3)[C@H](C)[C@H]12")
0.25
>>> quantitative_result("C[C@@H](O)[C@H]1C(=O)N2C(C(=O)O)=C(CSc3ccc4c(c3)CC(=O)N4C)[C@H](C)[C@H]12")
4
>>> quantitative_result("C[C@@H](O)[C@H]1C(=O)N2C(C(=O)O)=C(SCCc3ccc4ccccc4c3)[C@H](C)[C@H]12")
8
>>> quantitative_result("C[C@@H](O)[C@H]1C(=O)N2C(C(=O)O)=C(COc3ccc4cc(C(N)=O)ccc4c3)[C@H](C)[C@H]12")
0.25
